# TEST_PROTOCOL: i.v. pharmacokinetic parameters and oral bioavailability in male Sprague Dawley rat
# Format: in vivo
# SETTINGS: male, Sprague Dawley, whole blood, iv, 30-min i.v. infusion, i.v. dose = 2.0 mg/kg, blood
ASSAY_READOUT: Cmax (ng/mL)

| MOLECULAR_STRING | ASSAY_READOUT | RECORDED_MEASUREMENT |
| --- | --- | --- |
| CNC(=O)[C@@H](NC(=O)[C@H](Cc1ccc2ccccc2c1)[C@H](OC(C)C)C(=O)NO)C(C)(C)C | Cmax | 1340 |
